Tested on: (CUG)10 RNA (SEQ ID NO: 3)
Experiment: SPR binding to immobilized biotinylated RNA
Conditions: (CUG)10
Answer each item with its documented Residence time (t1/2) for compound binding to RNA.
Quick reminder: number only, in min, skip the unit.

[Q] Reported Residence time (t1/2) for compound binding to RNA, compound NCCCC[C@H](NC(=O)[C@H](C/C=C\C[C@H](NC(=O)[C@@H]1CCCN1)C(=O)N[C@@H](CCCCN)C(=O)NCCCN)NC(=O)[C@@H]1CCCN1)C(=O)NCCCN [Compound 6] : ____
[A] 0.3318

[Q] Reported Residence time (t1/2) for compound binding to RNA, compound CCc1nc2cc3ccccc3cc2cc1C(=O)N[C@@H](CCCCN)C(=O)N[C@@H](C/C=C\C[C@H](NC(=O)[C@H](CCCCN)NC(=O)c1cc2cc3ccccc3cc2nc1CC)C(=O)N1CCC[C@H]1C(=O)NCCCN)C(=O)N1CCC[C@H]1C(=O)NCCCN [Compound 8] : ____
[A] 3.8118

[Q] Reported Residence time (t1/2) for compound binding to RNA, compound CCc1nc2cc3ccccc3cc2cc1C(=O)N[C@@H](CCCCN)C(=O)N[C@@H](C/C=C/C[C@H](NC(=O)[C@H](CCCCN)NC(=O)c1cc2cc3ccccc3cc2nc1CC)C(=O)N1CCC[C@H]1C(=O)NCCCN)C(=O)N1CCC[C@H]1C(=O)NCCCN [Compound 9] : ____
[A] 4.0527
